FYI, the data here is from patent US20230331827A1.

systemName: T1, human Kv1.1 (huKv1.1) (Homo sapiens, UniProt Q09470)
T1 construct: expressed in transfected cells; host or cells: Freestyle CHO-S
T1 sequence (Q09470 whole entry): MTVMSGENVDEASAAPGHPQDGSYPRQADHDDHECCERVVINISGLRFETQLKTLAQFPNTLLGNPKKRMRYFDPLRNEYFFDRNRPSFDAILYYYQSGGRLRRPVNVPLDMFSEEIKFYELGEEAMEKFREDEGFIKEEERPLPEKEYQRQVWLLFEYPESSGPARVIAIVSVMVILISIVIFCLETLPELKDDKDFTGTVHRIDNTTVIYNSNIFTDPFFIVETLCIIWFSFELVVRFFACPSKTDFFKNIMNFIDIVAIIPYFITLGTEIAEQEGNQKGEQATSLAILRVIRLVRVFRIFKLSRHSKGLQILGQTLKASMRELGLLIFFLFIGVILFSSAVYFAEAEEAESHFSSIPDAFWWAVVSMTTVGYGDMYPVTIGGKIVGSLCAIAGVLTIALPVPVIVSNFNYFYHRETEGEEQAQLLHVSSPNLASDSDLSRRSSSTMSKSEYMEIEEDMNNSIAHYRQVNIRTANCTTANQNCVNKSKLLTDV
protocolText: QPatch automated patch-clamp, CHO-S cells expressing huKv1.1 (Examples 20-21)
Format: cell-based
runParameters: four-point curves of FIG. 33, Table E20
quantity: pIC50
One number for each entry, as −log10 of the molar value.

Entry KB_A12_AnTx 2 M: AnTx N17A/F32T in VL CDR2 of KB_A12, IgG (antibody, V domains shown) VH: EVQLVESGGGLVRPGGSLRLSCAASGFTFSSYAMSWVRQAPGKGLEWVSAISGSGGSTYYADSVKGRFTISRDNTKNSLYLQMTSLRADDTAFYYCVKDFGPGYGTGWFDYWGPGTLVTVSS VL: QSVLTQPPSVSEAPRQRVTITCSGSSSNIGNNAVNWYQQLPGKAPKLLIYAAGRQKECTGPQHCTNFCRKAKCTHGKCMNRKCKCTNCKANSGVSDRFSAAKSGTSASLAINGLRSEDEADYYCAAWDDSLNGYVFGTGTKLTVLG — recorded pIC50 = 4.99
